Target: Replicative DNA helicase DnaB (Mycobacterium tuberculosis)
Sequence (P9WMR3 whole entry): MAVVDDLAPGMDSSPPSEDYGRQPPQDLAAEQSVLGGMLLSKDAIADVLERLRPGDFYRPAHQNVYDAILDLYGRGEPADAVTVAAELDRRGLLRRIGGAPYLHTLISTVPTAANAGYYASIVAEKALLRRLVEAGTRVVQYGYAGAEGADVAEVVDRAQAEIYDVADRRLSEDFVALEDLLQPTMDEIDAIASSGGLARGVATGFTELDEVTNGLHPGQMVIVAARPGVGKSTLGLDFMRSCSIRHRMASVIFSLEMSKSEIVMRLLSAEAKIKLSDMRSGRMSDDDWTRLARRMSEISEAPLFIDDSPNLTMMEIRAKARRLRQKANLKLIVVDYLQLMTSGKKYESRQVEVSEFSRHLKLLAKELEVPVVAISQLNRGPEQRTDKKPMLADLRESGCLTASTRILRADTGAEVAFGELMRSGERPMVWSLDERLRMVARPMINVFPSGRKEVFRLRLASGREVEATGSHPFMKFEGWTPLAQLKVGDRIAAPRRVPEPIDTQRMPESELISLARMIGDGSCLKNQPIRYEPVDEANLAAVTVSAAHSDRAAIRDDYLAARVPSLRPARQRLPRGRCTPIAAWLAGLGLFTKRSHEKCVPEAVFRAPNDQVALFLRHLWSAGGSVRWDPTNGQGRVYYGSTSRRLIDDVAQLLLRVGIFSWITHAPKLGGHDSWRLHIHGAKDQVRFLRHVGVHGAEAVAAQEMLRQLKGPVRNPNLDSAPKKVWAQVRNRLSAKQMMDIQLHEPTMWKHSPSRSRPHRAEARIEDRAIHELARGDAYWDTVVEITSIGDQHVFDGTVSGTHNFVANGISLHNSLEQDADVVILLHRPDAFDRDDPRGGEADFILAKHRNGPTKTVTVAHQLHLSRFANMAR
Experiment: DnaB intein splicing inhibitors, dose response, biochemical, cell-free fluorescence (AID 449749)
Type: functional
Calls of active or inactive are those of the source.
Respond only with the outcome that fits, drawn from 1 (yes) for active, 0 (no) for inactive

| molecule | class |
| --- | --- |
| O=C(Cc1cc(O)n[nH]1)N/N=C/c1cccc2ccccc12 | 1 (yes) |
| CC(=O)NC1C(=O)N(CCN2CCOCC2)c2ccc(C)cc21 (configuration not stated) | 1 (yes) |
| O=[N+]([O-])c1cc(Br)c(Nc2ccccc2)c([N+](=O)[O-])c1 | 1 (yes) |
| Cc1ccccc1-c1nc(CN(C)C(C)c2ccon2)c(C)o1 (configuration not stated) | 1 (yes) |
| CCCC(=O)OCCNc1cc(Sc2nccn2C)c2nonc2c1[N+](=O)[O-] | 1 (yes) |

Prompt: Status in this test for CN1CCN(C2=C(Cl)C(=O)C(c3cnc(N4CCCCC4)s3)=C(Cl)C2=O)CC1 ?
Completion: 0 (no)

Prompt: Moving on to the next molecule: O=S(=O)(N[C@H]1C[C@@H](NS(=O)(=O)OCC(Cl)(Cl)Cl)C2CCCCC21)OCC(Cl)(Cl)Cl (some centres not stated)
Completion: 1 (yes)

----------
Molecular target: Rac GTPase-activating protein 1 (Homo sapiens, UniProt Q9H0H5)
Sequence (Q9H0H5 whole entry): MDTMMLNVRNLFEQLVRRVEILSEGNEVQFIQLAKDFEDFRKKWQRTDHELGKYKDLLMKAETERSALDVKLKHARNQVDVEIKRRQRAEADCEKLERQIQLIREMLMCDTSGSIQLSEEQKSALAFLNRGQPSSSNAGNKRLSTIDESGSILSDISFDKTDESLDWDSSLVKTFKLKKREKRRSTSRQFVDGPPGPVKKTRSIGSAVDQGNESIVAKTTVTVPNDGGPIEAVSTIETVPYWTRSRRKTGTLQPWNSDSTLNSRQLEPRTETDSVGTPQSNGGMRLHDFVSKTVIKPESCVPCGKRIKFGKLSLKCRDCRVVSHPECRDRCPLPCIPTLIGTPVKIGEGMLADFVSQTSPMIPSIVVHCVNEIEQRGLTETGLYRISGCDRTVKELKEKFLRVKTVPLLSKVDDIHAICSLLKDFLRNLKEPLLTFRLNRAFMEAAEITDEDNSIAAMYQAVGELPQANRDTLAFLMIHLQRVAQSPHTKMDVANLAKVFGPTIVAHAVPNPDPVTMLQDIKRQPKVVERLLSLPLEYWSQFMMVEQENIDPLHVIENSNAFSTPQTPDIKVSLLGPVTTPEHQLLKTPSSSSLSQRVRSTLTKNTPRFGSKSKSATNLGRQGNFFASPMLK
Assay: blockers of MgcRacGAP-driven Rac1 GTP hydrolysis – biochemical, ADP Hunter fluorescence, primary and confirmatory, confirmation (AID 624330)
Assay type: functional
Active and inactive are the calls of the source.
quantity.name: IC50

Prompt: Which IC50 value is on record for COc1ccc(OC)c(CN2CCN(Cc3ccc(OC)c(OC)c3OC)CC2)c1 ?
Completion: 77.7 µM (active)

Prompt: Let us now turn to CCN(CC)c1ccc(NC(=O)C2CCCC2)cc1
Completion: 63.5 µM (active)

Prompt: Now the compound CCN1CCN(CC(O)COC(c2ccccc2)c2ccccc2C)CC1 (stereo not given)
Completion: 64.1 µM (active)

----------
biological target: Calpain-2 catalytic subunit (Sus scrofa, UniProt P43367); assay: m-calpain protease blockers, concentration series – biochemical, fluorogenic peptide substrate, dose response (AID 1420); assay type: functional
Sequence (P43367 whole entry): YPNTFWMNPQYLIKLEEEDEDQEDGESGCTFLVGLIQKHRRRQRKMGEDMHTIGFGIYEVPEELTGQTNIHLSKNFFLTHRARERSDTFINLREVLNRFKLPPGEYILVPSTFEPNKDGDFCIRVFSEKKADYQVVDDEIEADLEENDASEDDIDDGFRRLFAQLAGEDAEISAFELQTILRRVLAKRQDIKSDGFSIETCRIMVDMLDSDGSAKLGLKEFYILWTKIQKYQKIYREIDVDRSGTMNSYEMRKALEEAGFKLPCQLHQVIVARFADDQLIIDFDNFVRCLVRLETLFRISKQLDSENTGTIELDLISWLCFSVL
# Lookup of reported IC50 keyed by entry

| molecule | measurement.target | IC50 |
| --- | --- | --- |
| O=[N+]([O-])c1ccc(NC(S)=NCCc2ccc(Cl)cc2)cc1 | Calpain-2 catalytic subunit (Sus scrofa, UniProt P43367) | 1.82 µM (not active) |
| CCN(CC)S(=O)(=O)c1ccc2oc(C(=O)NCc3ccc(C)cc3)c(C)c2c1 | Calpain-2 catalytic subunit (Sus scrofa, UniProt P43367) | 26.3 µM (not active) |
| CCOc1ccccc1Nc1nnc(Cc2ccccc2Cl)c(O)n1 | Calpain-2 catalytic subunit (Sus scrofa, UniProt P43367) | > 50 µM (not active) |
| COC(=O)CC(NS(=O)(=O)c1cccs1)c1cccc2ccccc12 (stereo unspecified) | Calpain-2 catalytic subunit (Sus scrofa, UniProt P43367) | > 50 µM (not active) |
| Cc1c(=O)n(OCc2ccccc2F)c2ccccc2[n+]1[O-] | Calpain-2 catalytic subunit (Sus scrofa, UniProt P43367) | 25.6 µM (not active) |

Now, please, on to the next molecule.
Prompt: Which IC50 is reported for this molecule? COC(=O)c1ccc2nc(NC(=O)C(C)(C)C)sc2c1
Completion: 24.1 µM (not active)

----------
Reported IC50 values for the following compounds.
molecular target: Corticotropin-releasing factor receptor 2/Corticotropin-releasing factor-binding protein (Homo sapiens, UniProt P24387+Q13324); assay: Dose Response confirmation of uHTS hits for small molecule antagonists of the CRF-binding protein and CRF-R2 receptor complex.; format: functional; conditions: read-out: IC50_Mean
Sequence (Q13324 whole entry): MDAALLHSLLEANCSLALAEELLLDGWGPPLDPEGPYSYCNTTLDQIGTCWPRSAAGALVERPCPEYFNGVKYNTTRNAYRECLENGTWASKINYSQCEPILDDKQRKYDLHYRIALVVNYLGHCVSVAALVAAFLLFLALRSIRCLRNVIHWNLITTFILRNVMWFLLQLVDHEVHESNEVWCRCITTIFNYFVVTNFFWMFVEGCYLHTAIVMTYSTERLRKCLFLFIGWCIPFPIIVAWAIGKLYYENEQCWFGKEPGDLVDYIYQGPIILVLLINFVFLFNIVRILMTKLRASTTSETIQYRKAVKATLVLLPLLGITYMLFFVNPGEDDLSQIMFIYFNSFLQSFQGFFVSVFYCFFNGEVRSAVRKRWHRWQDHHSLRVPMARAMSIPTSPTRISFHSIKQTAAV
Sequence (P24387 whole entry): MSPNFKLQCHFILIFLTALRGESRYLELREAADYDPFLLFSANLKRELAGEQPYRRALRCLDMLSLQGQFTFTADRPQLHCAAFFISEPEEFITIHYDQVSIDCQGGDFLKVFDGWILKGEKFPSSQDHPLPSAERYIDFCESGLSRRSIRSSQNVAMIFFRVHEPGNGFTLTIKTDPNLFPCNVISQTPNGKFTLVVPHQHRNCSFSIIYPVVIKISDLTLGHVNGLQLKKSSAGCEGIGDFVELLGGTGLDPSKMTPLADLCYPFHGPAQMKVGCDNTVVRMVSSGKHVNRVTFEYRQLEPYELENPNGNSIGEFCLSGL
Active and inactive are the calls of the source.

These recorded examples may help you get a feel for the data.
| compound | IC50 |
| --- | --- |
| COc1ccc(NC(=O)CCCCC(=O)Nc2ccc(OC)cc2OC)c(OC)c1 | < 0.368 µM (active) |
| CC(C)Cn1cnc2c(SCc3ccccc3)nc(N)nc21 | > 47.1 µM (inactive) |
| Cc1ccc(Nc2c(O)ncnc2O)cc1 | > 47.1 µM (inactive) |

Next item in the queue.
Prompt: Look at this compound and give its reported IC50. CC(C(=O)Nc1sccc1C(N)=O)N1C(=O)C2CC=CCC2C1=O (stereo not given)
Completion: > 47.1 µM (inactive)

----------
test system: Streptococcus sp. 'group A'; assay: Streptococcus pyogenes SK(-)GAS viability under kanamycin – luminescence, BacTiterGlo, confirmation, counter-screen for streptokinase expression inhibitor project, dose response (AID 1900); assay type: functional, organism-based
Calls of active or inactive are those of the source.
quantity.name: EC50

Solved cases below.
| compound | EC50 |
| --- | --- |
| Cc1ccc2[nH]c(C(=O)N/N=C/c3ccccc3O)c(C)c2c1 | 1.63 µM (active) |
| O=S(=O)(N[C@H]1C[C@@H](NS(=O)(=O)OCC(Cl)(Cl)Cl)C2CCCCC21)OCC(Cl)(Cl)Cl (some centres undefined) | 2.45 µM (active) |
| O=C(CSc1nnc(NC(=O)c2ccccc2)s1)NCC1CCCO1 (centres undefined) | > 150 µM (not active) |
| Oc1cc(C(F)(F)F)nc2c(C(F)(F)F)cccc12 | 2.62 µM (active) |
| O=[N+]([O-])c1ccc(NC(S)=NCCc2ccc(Cl)cc2)cc1 | 2.92 µM (active) |

Prompt: Item O=C(Nc1nc2ccccc2[nH]1)c1cccc(Cl)c1 has what recorded EC50?
Completion: 8.88 µM (active)

Prompt: Check COc1cccc(N/N=C/c2cccc(Br)c2O)c1 too.
Completion: 12.5 µM (active)

Prompt: Quick one: Cc1c(C(=O)NNC(=O)c2ccccc2O)oc2ccc(Br)cc12
Completion: 8.43 µM (active)

Prompt: Now consider CCOc1cc(/C=C2/NC(=S)NC2=O)ccc1OCc1ccc([N+](=O)[O-])cc1 and answer again.
Completion: 3.85 µM (active)

Cited source for all entries: ChEMBL document CHEMBL1201862
